system: KM12 colon; experiment: NCI-60 one-dose screen, 48 h (100 = growth as untreated, 0 = no growth, -100 = all killed); conditions: 10 µM unless noted
The panel holds about 83,000 compounds, 20% with a hit somewhere; the sample as a whole holds those more often.
Doc: threshold 80% (exclusive). Items with growth beneath it return True; others return False.

{"columns": ["smiles.record", "target.of.assay", "discrete.label"],
 "data": [
  ["COc1ccc(-c2cn3c(C(=O)Nc4ccccc4Cl)c(-c4ccccc4)c4c3n2CCCC4)cc1", "KM12 colon", "False"],
  ["O=C(Nc1ccc(I)cc1F)c1cc(Br)ccc1O", "KM12 colon", "True"],
  ["O=C(Nc1ccc(Br)cc1F)c1cc(I)ccc1O", "KM12 colon", "True"],
  ["C=C1C(=O)O[C@H]2[C@H]1CC/C(COC(=O)/C=C\\C(=O)O)=C\\CC[C@@]1(C)O[C@@H]21", "KM12 colon", "False"],
  ["O=c1oc2ccc(I)cc2c(=O)n1-c1ccc(Cl)cc1F", "KM12 colon", "True"]
]}

----------
system: HT29 colon; assay: NCI-60 one-dose screen, 48 h; settings: 10 µM unless noted
This is part of a sample that, as a whole, favours compounds with a hit. Of some 83,000 tested, about 20% had one in any assay. The source made the active and inactive calls. The calls were made as follows: active = growth percent below 10; inactive = the rest.
Possible outcomes: active, inactive

{"columns": ["molecule", "discrete.label"],
 "data": [
  ["O=C(CCc1nnc2sc(-c3ccc(Cl)cc3Cl)nn12)c1nc2ncccc2[nH]1", "active"],
  ["Nc1ccccc1-c1ccc(-c2ccc(Cl)cc2)c2c1[nH]c1ccccc12", "inactive"],
  ["CC(=O)O[C@@H]1/C=C/C(=O)N[C@@H](C)CCC/C=C/[C@@H]2CCC[C@H]21", "inactive"],
  ["COc1ccc(C2Nc3nc(OC)n(C)c(=O)c3N=C3c4ccccc4C(=O)C32)cc1 (stereo not given)", "inactive"],
  ["Cc1nc(Nc2cn[nH]c2C(=O)Nc2ccc(CN3CCN(C)CC3)cc2)c2ccsc2n1", "inactive"]
]}

----------
system: HT29 colon; test: NCI-60 one-dose screen, 48 h (100 = growth as untreated, 0 = no growth, -100 = all killed); conditions: 10 µM unless noted
Compounds without any hit were thinned out: in the full panel of roughly 83,000, 20% have a hit.
assay.metric: growth (%)

{"columns": ["compound", "observed.result"],
 "data": [
  ["C=C(C)CCC(C)N1CCC(N2CCC(C(=O)NCCc3ccccc3)CC2)CC1 (configuration not stated)", 39.3],
  ["CCOC(=O)c1cc2c(n1Cc1ccccc1OC)-c1oncc1CCC2", 10.1],
  ["CCCCCCc1cc2cc(-c3nc4ccccc4[nH]3)c(=Nc3ccccc3C)oc2cc1O", 2.75],
  ["COc1ccc(/C(C#N)=C/c2nc3c(N4CCOCC4)nc(Cl)nc3n2C)cc1OC", 3.73],
  ["CCOC(=O)c1cnc2c(C)cccc2c1Nc1ccc(C(C)=O)cc1", -67.4],
  ["COc1ccc(C2C3=C(COC3=O)N(CCO)c3cc4c(cc32)CCC4)cc1 (configuration not stated)", 15.4],
  ["COc1ccc(C2C3=C(COC3=O)N(CCO)c3cc4c(cc32)CCC4)cc1OC (configuration not stated)", -3.07],
  ["COC(=O)c1c2c(c(C)[n+]([O-])c1C)C(=O)C(NCc1ccc(Br)cc1)=CC2=O", 9.96],
  ["Cc1ccc2sc3c(NCCCNCCO)nc4ccccc4c3c(=O)c2c1", -65],
  ["CCCCc1ccc(NS(=O)(=O)c2cc3c4c(c2)CCN4C(=O)CC3)cc1", 29.9],
  ["C=CCN1C(=O)/C(=c2\\sc3n(c2=O)NC2C(N=3)N(CC)C(=O)N2CC)c2ccccc21 (configuration not stated)", 19.9],
  ["O=C(NC1CCN(Cc2ccccc2)CC1)c1cc(C(=O)NC2CCN(Cc3ccccc3)CC2)cc(C(=O)NC2CCN(Cc3ccccc3)CC2)c1", 75],
  ["Cc1nc2ccccc2c(/C=C/c2ccc(F)cc2)c1C(N)=O", 115],
  ["OCCNc1nc(Nc2ccc(C3=NN(c4cc(Cl)cc(Cl)c4)C(c4ccc(C(F)(F)F)cc4)C3)cc2)nc(N2CCOCC2)n1 (configuration not stated)", 55.9],
  ["COC(=O)C1=Nc2ccc(F)cc2/C1=C/c1sc(=S)[nH]c1O", 8.16],
  ["CC[C@]1(O)C[C@@H]2CN(CCc3c([nH]c4ccccc34)[C@@](C(=O)OC)(c3cc4c(cc3OC)N(C)[C@H]3[C@@](O)(C(=O)OC)[C@H](OC(C)=O)[C@]5(CC)C=CCN6CC[C@]43[C@@H]65)C2)C1", 8.06],
  ["CCN(CC)c1cc(C)c2cc(NC(=O)c3cccc(OC)c3)ccc2n1", 67.8],
  ["COc1ccc(C2=NN(/C=C3\\SC(=O)NC3=Nc3ccc(F)cc3)C(c3ccc(F)cc3)C2)cc1 (configuration not stated)", 98.8],
  ["CCOC(=O)C1(Cc2ccccc2)CCN(Cc2cccc(OC)c2O)CC1", 22.2],
  ["CN(C)c1ccc(/C=C/c2ccnc3c(O)cccc23)cc1", 98.6],
  ["COc1cc2nc(-c3cccc4cccnc34)nc(NC3CCN(Cc4ccccc4)CC3)c2cc1OC", -87.2],
  ["COc1ccc(C(O)(CCC(C)C)C(CN2CCOCC2)c2ccc(Cl)cc2)cc1 (configuration not stated)", 9],
  ["COc1ccccc1C(=O)O/N=C(\\N)Cc1cccc2ccccc12", 77.7],
  ["CC1=CCC(OC(=O)C(C)(C)CCC(O)(C(=O)OC2(C(C)C)CCC3(C)OC3C2)C(C)C)(C(C)C)CC1 (configuration not stated)", -70.2],
  ["CCOC(=O)c1sc(-c2ccc(OS(=O)(=O)C[C@]34CCC(CC3=O)C4(C)C)c(C=O)c2)nc1C", 6.26],
  ["CC1(O)COCCCCOc2c(CN)cccc2NC(=O)c2nc(cnc2N)-c2ccc(cc2)S(=O)(=O)C(C)(C)C1 (configuration not stated)", 1.64],
  ["COc1ccc2c(c1)C=C1CSCC3=Cc4cc(OC)ccc4OC13O2", 6.74],
  ["O=c1oc2ccc(I)cc2c(=O)n1-c1ccc(I)cc1F", 28.3],
  ["COc1ccc(-c2nc(-c3ccccn3)c(-c3ccccn3)n2CC(C)C)cc1OC1CCCC1", 12.2],
  ["COc1ccc(/C=C2\\N=C(c3ccccc3)N(c3ccc(-c4nc5ccc(C)cc5s4)cc3)C2=O)cc1", 88.9],
  ["CC(=O)SC1CC(=O)C=C2CCC3C4CCC(=O)OC4(C)CCC3C21C (configuration not stated)", 101],
  ["Clc1ccc(COc2ccc(Nc3ncnc4onc(-c5ccccc5)c34)cc2)cc1", 92.2],
  ["N#Cc1c(N)nc2c(c1N)C(c1ccc(F)cc1)c1ccc(N)cc1O2 (configuration not stated)", 112],
  ["COc1cc(CNC(=O)c2ccsc2Nc2ccnc(C(F)(F)F)c2)ccc1O", 97.8],
  ["O=C(NCc1ccccc1)C1CN(c2ccc(Cl)cc2)N(c2ccc(Cl)cc2)C1=O (configuration not stated)", 48.8],
  ["COC(=O)/C(CCC=C(C)C)=C1\\[C@@H](OC(C)=O)C[C@@]2(C)[C@H]1C[C@@H](O)[C@H]1[C@@]3(C)CC[C@H](NCCCNCCCCNCCCN)[C@@H](C)[C@@H]3CC[C@@]12C", 31.1],
  ["O=c1c2cc(F)cc(Cl)c2sc2c(Cl)nc3ccccc3c12", 101]
]}

----------
system: UO-31 renal; test: NCI-60 one-dose screen, 48 h; settings: 10 µM unless noted
Compounds without any hit were thinned out: in the full panel of roughly 83,000, 20% have a hit. Active and inactive are the calls of the source. The calls were made as follows: active = growth percent below 10; inactive = the rest.
Possible outcomes: T (active), F (inactive)

{"columns": ["compound", "discrete.label"],
 "data": [
  ["COc1ccc(C2=C(c3cccc(OC)c3)C(=O)c3ccc(C)nc3C2=O)cc1", "F"],
  ["COc1ccccc1C(=O)O/N=C(\\N)Cc1cccc2ccccc12", "F"],
  ["COc1ccc(-c2nc(-c3ccccc3)c(-c3ccccc3)[nH]2)cc1OC1CCCCC1", "F"],
  ["O=C(Nc1ccc(-c2nc3ccc(NC(=O)c4ccc(Cl)cc4)cc3[nH]2)cc1)c1ccc(Cl)cc1", "T"],
  ["O=C(CCc1nnc2sc(Cc3ccccc3Cl)nn12)c1nc2ncccc2[nH]1", "F"],
  ["Cc1sc2ncnc(Sc3nc4ccccc4[nH]3)c2c1C", "T"],
  ["Cn1cc([C@@H]2Nc3ccc4[nH]ncc4c3[C@H]3[C@H]4CCC(C4)[C@H]32)c(C(F)(F)F)n1", "F"],
  ["Cc1c(C(=O)OCCO)cc(-c2ccc(Cl)cc2)n1-c1ccc(Cl)cc1Cl", "F"],
  ["CN1C(=O)N(C)C2Nn3c(s/c(=C\\c4ccc(Cl)cc4Cl)c3=O)=NC21 (stereo unspecified)", "F"],
  ["O=C1c2cc(Cl)ccc2Oc2cc([N+](=O)[O-])ccc2N1c1ccc(F)cc1F", "F"],
  ["Clc1ncccc1Nc1ccc2nnc(-c3ccncc3)n2n1", "F"],
  ["O=C(COc1cc(O)c2c(=O)cc(-c3ccccc3)oc2c1)Nc1ccccc1", "F"],
  ["COc1cc2nc(-c3cccc4cccnc34)nc(NC3CCN(Cc4ccccc4)CC3)c2cc1OC", "T"],
  ["CN1C(=O)N(C)C2Nn3c(s/c(=C4\\C(=O)N(CCc5ccccc5)c5ccccc54)c3=O)=NC21 (stereo unspecified)", "F"],
  ["COc1ccccc1CNC(=O)C1c2ccccc2C(=O)N(CC(C)C)C1c1cccs1 (stereo unspecified)", "F"],
  ["COc1ccc(Cn2cc(Cn3c(=O)c(-c4nc5ccccc5[nH]4)cc4ccccc43)nn2)c(OC)c1OC", "F"],
  ["Oc1c(C(Nc2ccccn2)c2cccc(Oc3ccccc3)c2)ccc2cccnc12 (stereo unspecified)", "T"],
  ["CC1(C)CC2(C)OC2C2(C1)N=NC(=Nc1ccccc1)O2 (stereo unspecified)", "F"],
  ["COc1ccc(C(=O)C2CC2c2ccc(Cl)cc2)cc1 (stereo unspecified)", "F"],
  ["CC(C)Cn1c2c(c(=S)[nH]c1=O)CCC2", "F"],
  ["CN1CCN(Cc2ccc(C(=O)Nc3cncc(C#Cc4cnc5cccnn45)c3)cc2C(F)(F)F)CC1", "F"],
  ["CCOc1ccc(-c2nonc2NC(=O)c2cccc(C)c2)cc1OCC", "F"],
  ["O=C(Nc1ncc(Cc2cccc(C(F)(F)F)c2)s1)C1COc2ccccc2O1 (stereo unspecified)", "F"],
  ["COC(=O)/C(=C\\c1c(-c2ccccc2)[nH]c2ccccc12)S(C)(=O)=O", "F"],
  ["NC(CCl)=NCCC[C@H](N)C(=O)O", "F"],
  ["O=Cc1cc2ccccc2nc1Nc1nccs1", "F"],
  ["COC(=O)[C@@H]1CCCN1C(=O)[C@H]1CCCN1C(=O)[C@@H](Cc1c[nH]c2ccccc12)NC(=S)Nc1cc(C(F)(F)F)cc(C(F)(F)F)c1", "F"],
  ["N#C/C(=C\\c1c(-c2ccccc2)[nH]c2ccccc12)S(=O)(=O)c1ccccc1", "F"],
  ["C=C(C)CCC(C)N1CCC(N2CCC(C(=O)NCCc3ccccc3)CC2)CC1 (stereo unspecified)", "F"],
  ["Nc1ccn(C2O[C@H](CO)[C@@H](O)[C@H]2O)c(=O)n1 (stereo partly specified)", "F"],
  ["O=c1oc2ccc(Cl)cc2c(=O)n1-c1cc(C(F)(F)F)cc(C(F)(F)F)c1", "T"],
  ["CC(=O)SC1CC(=O)C=C2CCC3C4CCC(=O)OC4(C)CCC3C21C (stereo unspecified)", "F"],
  ["O=C(CN1C=NC2C(N3CCOCC3)=NC=NC21)c1cccc2ccccc12 (stereo unspecified)", "F"],
  ["O=C(Nc1ccc(N2CCNCC2)cc1)c1[nH]ncc1Nc1cc(Oc2ccccc2)ncn1", "T"],
  ["COc1ccc(-c2cc(=O)c3c(OC)c4ccoc4c(/C=C/C=O)c3o2)cc1", "F"],
  ["COc1ccc(S(=O)(=O)N(Cc2ccc3c(n2)C=CC(C)(C)O3)C2CCC2)cc1OC", "T"],
  ["C[n+]1c2ccccc2nc2ccc(NCCO)cc21", "F"],
  ["O=c1oc2ccc(I)cc2c(=O)n1-c1ccc(Cl)cc1F", "T"],
  ["COc1cc(/C=C2\\CCC/C(=C\\c3cc(CN4CCCCC4)c(O)c(OC)c3)C2=O)cc(CN2CCCCC2)c1O", "F"],
  ["COc1cc(-c2c3c(c(Br)n2Cc2ccccc2)-c2nc(N)sc2CC3)cc(OC)c1OC", "F"],
  ["Brc1ccc(Oc2ccc(Nc3ncnc4onc(-c5ccccc5)c34)cc2)cc1", "F"]
]}
